Recorded THRß-Selectivity for the following compounds
# ASSAYED TARGET: THR-β/RXR-α (Homo sapiens (Human), UniProt P10828)
# Sequence (P10828 202-461): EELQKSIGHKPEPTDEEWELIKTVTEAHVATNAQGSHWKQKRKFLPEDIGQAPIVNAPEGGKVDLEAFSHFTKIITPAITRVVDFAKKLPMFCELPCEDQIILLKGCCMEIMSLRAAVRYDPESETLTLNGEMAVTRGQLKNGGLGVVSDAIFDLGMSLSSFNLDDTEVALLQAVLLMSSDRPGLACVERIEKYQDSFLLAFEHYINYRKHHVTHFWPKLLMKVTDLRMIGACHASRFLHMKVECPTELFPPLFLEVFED
# Sequence (P19793 225-462 partner): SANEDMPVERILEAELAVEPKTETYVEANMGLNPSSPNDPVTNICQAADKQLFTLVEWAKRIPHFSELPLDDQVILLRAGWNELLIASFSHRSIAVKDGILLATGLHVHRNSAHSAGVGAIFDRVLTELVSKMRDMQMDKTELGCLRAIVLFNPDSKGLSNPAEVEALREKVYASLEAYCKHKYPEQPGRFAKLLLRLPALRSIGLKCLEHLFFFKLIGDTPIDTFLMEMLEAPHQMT
# Sequence (Q15596 679-703 partner): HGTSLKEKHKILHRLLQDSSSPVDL
# PROCEDURE SUMMARY: THR/RXR heterodimer assay (THR-β/RXR-α)
# Type: biochemical
# CONDITIONS: RXR heterodimer assay; normalized to T3 activity
Give the figure by itself; no unit, no explanation.

Here's what some known entries look like.
| SMILES | RESULT VALUE |
| --- | --- |
| CC(C)n1c(=O)[nH]c2ccc(Oc3c(Cl)cc(-n4nc(C#N)c(=O)[nH]c4=O)cc3Cl)cc21 | 5.8 |
| COc1nc2ccc(Oc3c(Cl)cc(NC(=O)c4noc(=O)[nH]4)cc3Cl)cc2n1C1(C)CC1 | 17.7 |
| O=C(Nc1cc(Cl)c(Oc2ccc3[nH]c(=O)n(C4(C(F)F)CC4)c3c2)c(Cl)c1)c1noc(=O)[nH]1 | 10.1 |
| CC1(n2c(=O)[nH]c3ccc(Oc4c(Cl)cc(NC(=O)c5noc(=O)[nH]5)cc4Cl)cc32)CC1 | 11.0 |
| COc1nc2ccc(Oc3c(Cl)cc(-n4nc(C#N)c(=O)[nH]c4=O)cc3Cl)cc2n1C1CC1 | 16.9 |
| COc1nc2ccc(Oc3c(Cl)cc(NC(=O)c4noc(=O)[nH]4)cc3Cl)cc2n1C1CC1 | 21.2 |

Now look at this entry.
Input Cn1c(=O)[nH]c2ccc(Oc3c(Cl)cc(NC(=O)c4noc(=O)[nH]4)cc3Cl)cc21 . Output THRß-Selectivity: 5.3
